settings: 333.15 K; 10000 kPa; Liquid
Overview of reported mass density across a group of molecules:
Write the value in kg/m3 as a bare number.

>>> experimental_result("CCCCCCCCCCCCCC[P+](CCCCCC)(CCCCCC)CCCCCC.[Cl-] [trihexyl(tetradecyl)phosphonium chloride]")
874.5

Prompt: # return recorded mass density for entry CCCCCCCCCCCCCC[P+](CCCCCC)(CCCCCC)CCCCCC.N#C[N-]C#N [tetradecyl(trihexyl)phosphonium dicyanamide]
Response: 884

Prompt: # return recorded mass density for entry CCCCCCCCCCCCCC[P+](CCCCCC)(CCCCCC)CCCCCC.CS(=O)(=O)[O-] [trihexyltetradecylphosphonium methanesulfonate]
Response: 913.7

Prompt: # return recorded mass density for entry CCCCCCCCCCCCCC[P+](CCCCCC)(CCCCCC)CCCCCC.[Br-] [tetradecyltrihexylphosphonium bromide]
Response: 938

Prompt: # return recorded mass density for entry "CCCCCCCCCCCCCC[P+](CCCCCC)(CCCCCC)CCCCCC.O=S(=O)([N-]S(=O)(=O)C(F)(F)F)C(F)(F)F"
Response: 1047.8

Every entry's value here was drawn from the NIST ThermoML archive (doi:10.1021/je101232g).
